species: Oryctolagus cuniculus; experiment: Percent stimulation of adenylate cyclase determined in rabbit heart membranes at 5 uM of compound as compared to 5 uM of forskolin; assay type: functional; details: Membrane
Quantity name: Stimulation (%)

Before answering, review these 2 worked examples.
Need Stimulation, item C=C[C@@]1(C)CC(=O)[C@@]2(O)[C@H](O1)C(OC=O)C(O)[C@H]1C(C)(C)CC[C@H](O)C12C (some centres undefined)
52

For C=C[C@@]1(C)CC(=O)[C@@]2(O)[C@H](O1)C(OC(=O)OCC)C(O)[C@H]1C(C)(C)CC[C@H](O)C12C (some centres undefined) then?
60

[P] C=C[C@@]1(C)CC(=O)[C@@]2(O)[C@H](O1)C(OC(C)=O)C(O)[C@H]1C(C)(C)CCC(=O)C12C (some centres undefined)
[Q] C=C[C@@]1(C)C[C@@H](O)[C@H]2[C@H](O1)C(O)C(O)[C@H]1C(C)(C)CC[C@H](O)C21C (some centres undefined)
Exercise: compare P and Q ; which one has the greater Stimulation? Reply briefly: the label of your chosen item.
P
(P: 47%, Q: 1.6%)

----------
organism: Oryctolagus cuniculus; assay: Percent stimulation of adenylate cyclase determined in rabbit heart membranes at 5 uM of compound as compared to 5 uM of forskolin; format: functional; conditions: Membrane
Quantity name: Stimulation (%)

Before answering, review these 2 worked examples.
Need Stimulation, item C=C[C@@]1(C)CC(=O)[C@@]2(O)[C@H](O1)C(OS(=O)(=O)c1ccc(C)cc1)C(O)[C@H]1C(C)(C)CC[C@H](O)C12C (some centres undefined)
5

For C=C[C@@]1(C)CC(=O)[C@@]2(O)[C@H](O1)C(OC(=O)CC)C(O)[C@H]1C(C)(C)CC[C@H](O)C12C (some centres undefined) then?
67

[1] C=C[C@@]1(C)CC(=O)[C@H]2[C@H](O1)C(OC(C)=O)C(O)[C@H]1C(C)(C)CCCC21C (some centres undefined)
[2] C=C[C@@]1(C)C[C@H](O)[C@@]2(O)[C@H](O1)C(OC(C)=O)C(O)[C@H]1C(C)(C)CC[C@H](O)C12C (some centres undefined)
[3] CC(=O)OC1C(O)[C@H]2C(C)(C)CC[C@H](O)C2(C)[C@@]2(O)C(=O)C[C@](C)(C3CO3)O[C@H]12 (some centres undefined)
[4] C=C[C@@]1(C)CC(=O)[C@@]2(O)[C@H](O1)C(OC(C)=O)C(O)[C@H]1C(C)(C)CC[C@H](O)C12C (some centres undefined)
[5] C=C[C@@]1(C)CC(=O)[C@@]2(O)[C@H](O1)C(OC(=O)c1cc(OC)c(OC)c(OC)c1)C(O)[C@H]1C(C)(C)CC[C@H](O)C12C (some centres undefined)
Hello, I need these entries ordered by Stimulation, highest reading first. Thanks! Answer format: the labels, in the requested order.
4, 2, 5, 3, 1
(4: 100%, 2: 49%, 5: 31%, 3: 5%, 1: 1%)

[A] C=C[C@@]1(C)CC(=O)[C@@]23OC(=O)O[C@H]4CCC(C)(C)[C@H](C5OC(=O)OC5[C@H]2O1)C43C (some centres undefined)
[B] C=C[C@@]1(C)CC(=O)[C@H]2[C@H](O1)C(OC(C)=O)C(O)[C@H]1C(C)(C)CC[C@H](O)C21C (some centres undefined)
Exercise: compare A and B ; which one has the greater Stimulation? Reply briefly: the label of your chosen item.
B
(B: 46%, A: 1%)

// data source = ChEMBL document CHEMBL1122456
